assay: folding stability dG unfold from trypsin proteolysis; higher = more stable
Give yes when the value for folding stability dG unfold is at least 2 kcal/mol. Give no when it is less.

For orientation, consider the following solved cases.
1) SAGGSAGGSAGMKIRIELPGMSPEQIEELAKLIPNVRVSITYDKETNRVYVEIEVSEEDLSAGGSAGGSAGG [r11_862_TrROS_Hall]
yes
2) SMKTVVIKIRKKDGKVTLEEIREAIKALLPPGAKVKLTEEELEKLVEELEKKTGKEITADDLVIVVEVEPSA [r9_197_TrROS_Hall]
yes
3) SAGGSAGGSAKKVIKAKILEVKVLPDGTGLVKLEGEDGLEVVIPLSILENISPDAIVTIEASAGGSAGGSAG [r3_315_TrMRF]
no
4) SAGGSAGGSAGMKTTYDPDTNKLSITLPNGTVATYYLGTGVIEIPDEVSSKEDIKVEKAASAGGSAGGSAGG [r17_174_JUSTAS]
no
5) SAMVEVSTLPDGTTRVTITGKDPAAFEKELAELIEKIKKEGINATITKTREEPIPEEPELYRAELEIIVSAG [r14_119_JUSTAS]
no

[Q] I'd appreciate it if you could say whether SAKLEIELNGYKIVSVEVNEDGTVKMKIEVDGKLYELTLKVKLPPPKVEVKEEKKEVKEVKFVKEGEEKSAG [r14_218_TrROS_Hall] has folding stability dG unfold at least equal to 2 kcal/mol.
[A] no

[Q] I'd appreciate it if you could say whether SMKKTYTFPVTLVPKDGKASLTVNWYAPDGTSLGTQTKSASAEGNTVTATVTVTVDAPPGAKIPSITVNASA [r9_292_JUSTAS] has folding stability dG unfold at least equal to 2 kcal/mol.
[A] no

###

test: folding stability dG unfold from chymotrypsin proteolysis; higher = more stable
Give class 1 when the value for folding stability dG unfold is at least 4 kcal/mol. Give class 0 when it is less.

1. PMIAPARLPDGSQTVSIFNANGELLVEAVVENDPELIEEAIEKLFEALPNIKPEELHVSVSDPETGESREIS [r1_55_TrMRF]
class 0
2. SAGGMLLVRIRVKLSPEQIKALEEAGFEVVEERDGEVVVRLEVSPEQLEKLKALFPDAEIEVVELPPESAGG [r13_261_TrROS_Hall]
class 1
3. SAGGSAGGSAMPEEVKLRVVKVKVKEVEVETDENGEKRTRVKAEVVEEREITLPKEELEKLSAGGSAGGSAG [r3_121_TrROS_Hall]
class 0
4. SAGGSAGGSAGGSSIRIWIFFPGYFFRITIKPDPGNPNMIKIDITEIIPPDQMDDEDLISAGGSAGGSAGGS [r4_316_TrROS]
class 1
5. SAGGSAKKKVTITVEKKGDKYLVTIEVDGKTVVIEVPKDTTIEEIAAALPPGAKIKEIKVVKAEELSAGGSA [r15_1058_TrROS_Hall]
class 0

[Q] I'd appreciate it if you could say whether SAGGSAKKPKWIPIKIKLPGSLEEAREWAEEIAKWLAKQNGDIKIDAIKYERDPNGHVEVTIQVRVSAGGSA [r15_718_TrROS] has folding stability dG unfold at least equal to 4 kcal/mol.
[A] class 0

[Q] I'd appreciate it if you could say whether SKIRIIRPERSLEIDLPKSARIEFDPETRRIYFINPDGERLEFPLGPNAVIIPGDDEITIIDPPASPENPSA [r9_653_TrMRF] has folding stability dG unfold at least equal to 4 kcal/mol.
[A] class 0

Source of measurements: the supplement of paper PMC12764529
